- ASSAY_SYSTEM: Estrogen receptor beta (Homo sapiens)
- MEASUREMENT_NOTES: Transcriptional agonistic efficacy against ER beta at 10e-6 M was determined by cotransfection in HEC-1 cells
- Assay type: functional, cell-based
MEASURED_ENDPOINT: Efficacy (%)

Worked set:
[
  {
    "MOLECULE": "CC12CCC(C1)C(C)(C)C2=C(c1ccc(O)cc1)c1ccc(O)cc1 (stereo unspecified)",
    "MEASURED_ENDPOINT": "Efficacy",
    "RESULT_VALUE": 3
  },
  {
    "MOLECULE": "Oc1ccc(C(=C2C3CCCC2CCC3)c2ccc(O)c(O)c2)cc1",
    "MEASURED_ENDPOINT": "Efficacy",
    "RESULT_VALUE": 2
  },
  {
    "MOLECULE": "CC12CCC(CC1=C(c1ccc(O)cc1)c1ccc(O)cc1)C2(C)C (stereo unspecified)",
    "MEASURED_ENDPOINT": "Efficacy",
    "RESULT_VALUE": 4
  },
  {
    "MOLECULE": "Oc1ccc(C2(c3ccc(O)cc3)C3CCCC2CCC3)cc1",
    "MEASURED_ENDPOINT": "Efficacy",
    "RESULT_VALUE": 4
  }
]

P. Oc1ccc(C(=C2CCCCC2)c2ccc(O)cc2)cc1
Q. Oc1ccc(C(=C2C3CC4CC(C3)CC2C4)c2ccc(O)cc2)cc1
Request: Which record would sort first by descending Efficacy, P or Q ? Answer with the label corresponding to your selection.
Response: P
(P: 3%, Q: 2%)

Where do these numbers come from? They come from ChEMBL document CHEMBL1136773.
